test system: SNB-19 CNS; test: NCI tumour cell line growth inhibition, 48 h
measured_parameter: GI50

Challenge: GET /values?readout=GI50&item= C[C@H]1c2ccccc2CN1CCCOc1cc2c(cc1OCC1CC1)C1(CCCC1)C(N)=N2
Response given: 5.65 µM

Challenge: GET /values?readout=GI50&item= C=C1C(=O)O[C@H]2[C@H]1CC/C(CNC(=O)/C=C/c1ccccc1)=C\CC[C@@]1(C)O[C@@H]21
Response given: 2.39 µM

Challenge: GET /values?readout=GI50&item= COc1cc(/C=C/[N+](=O)[O-])cc(OC)c1OC
Response given: 5.64 µM

Challenge: GET /values?readout=GI50&item= CN1CCN(c2cc3nc4ccccc4n(-c4ccc(Cl)cc4)c-3cc2=N)CC1
Response given: > 100 µM

Challenge: GET /values?readout=GI50&item= NS(=O)(=O)c1cccc(-c2ccc3c(NC(=O)C4CC4)n[nH]c3c2)c1
Response given: 20.4 µM

Challenge: GET /values?readout=GI50&item= CCC[CH2][Sn]([CH2]CCC)([O]C(=O)/C=C/c1ccccc1F)[O]C(=O)/C=C/c1ccccc1F
Response given: 0.788 µM

Challenge: GET /values?readout=GI50&item= Nc1cc2cccc[n+]2c2cccc(Cl)c12
Response given: 12.7 µM

Challenge: GET /values?readout=GI50&item= COc1cccc2c1[C@H]1CO[C@H]3C4C[C@H](C(=O)O)C([C@@H](C2)N13)N4C (stereo not given in full)
Response given: 3.81 µM

Challenge: GET /values?readout=GI50&item= NC(=O)c1cccc(-c2cc(C(N)=O)ccc2Cl)c1
Response given: 2.89 µM

Challenge: GET /values?readout=GI50&item= CC/C=C\C/C=C/C=C1/C(=O)C=C[C@@H]1C/C=C\CCCC(=O)OC
Response given: 5.06 µM

Data provenance: PubChem BioAssay (NCI)
